- Test system: Nucleoside Phosphorylase
- test-description: Pyrimidine nucleoside phosphorylase kinetics, human liver
- Type: biochemical
- experimental-parameters: substrate of nucleoside phosphorylase, 37° C.
readout-label: Vmax (nmol/min/mg)
Write down the numeric answer in nmol/min/mg and omit the unit.

{"columns": ["molecule", "observed"],
 "data": [
  ["O=c1[nH]c(=O)n([C@@H]2O[C@H](CO)[C@@H](O)[C@H]2O)cc1F [5-Fluorouridine]", 2.470],
  ["Cc1cn([C@H]2C[C@H](O)[C@@H](CO)O2)c(=O)[nH]c1=O [Thymidine, thymidine]", 19.471],
  ["O=c1[nH]c(=O)n([C@H]2C[C@H](O)[C@@H](CO)O2)cc1F [5-Fluoro-2'-deoxyuridine, 5-fluoro-2'-deoxyuridine]", 24.041]
]}

Let us move to another entry and its Vmax.
QUERY: So what does the record say about Vmax for O=c1ccn([C@@H]2O[C@H](CO)[C@@H](O)[C@H]2O)c(=O)[nH]1 [Uridine, uridine] ?
RESULT: 1.703

Origin of values: patent US5670331A
